Items are presented alongside their recorded residual activity.
assayed.target: PAK7 (human)
protocol: radiometric filter-binding kinase assay
recorded.conditions: compound 1.0 µM; ATP 20 µM

>  <smiles.code>
CC(C)(N)c1ccc(-c2nc3ccccc3nc2-c2ccccc2)cc1

>  <readout.units>
%

>  <residual activity>
96

$$$$
>  <smiles.code>
COC[C@H]1OC(=O)c2coc3c2[C@@]1(C)C1=C(C3=O)[C@@H]2CCC(=O)[C@@]2(C)C[C@H]1OC(C)=O

>  <readout.units>
%

>  <residual activity>
72

$$$$
>  <smiles.code>
O=C1c2ccccc2-c2n[nH]c3cccc1c23

>  <readout.units>
%

>  <residual activity>
82

$$$$

====

assayed.target: NEK6 (human)
protocol: radiometric filter-binding kinase assay
recorded.conditions: compound 1.0 µM; ATP 50 µM
Items are presented alongside their recorded residual activity.

>  <molecule>
O=S(=O)(NCCNC/C=C/c1ccc(Br)cc1)c1cccc2cnccc12

>  <residual activity [%]>
104

$$$$
>  <molecule>
COC[C@H]1OC(=O)c2coc3c2[C@@]1(C)C1=C(C3=O)[C@@H]2CCC(=O)[C@@]2(C)C[C@H]1OC(C)=O

>  <residual activity [%]>
113

$$$$
>  <molecule>
CO[C@H]1CC2CC[C@@H](C)[C@@](O)(O2)C(=O)C(=O)N2CCCC[C@H]2C(=O)OC([C@H](C)C[C@@H]2CC[C@@H](O)[C@H](OC)C2)CC(=O)[C@H](C)/C=C(\C)[C@@H](O)[C@@H](OC)C(=O)[C@H](C)C[C@H](C)/C=C/C=C/C=C/1C (stereo not given in full)

>  <residual activity [%]>
95

$$$$
>  <molecule>
O=C1c2ccccc2-c2n[nH]c3cccc1c23

>  <residual activity [%]>
102

$$$$
>  <molecule>
COc1ccc2c(c1)=NC1=C(C)NCCC=21

>  <residual activity [%]>
94

$$$$

====

assayed.target: PAK7 (human) (UniProt Q9P286)
Sequence (Q9P286 whole entry, looked up): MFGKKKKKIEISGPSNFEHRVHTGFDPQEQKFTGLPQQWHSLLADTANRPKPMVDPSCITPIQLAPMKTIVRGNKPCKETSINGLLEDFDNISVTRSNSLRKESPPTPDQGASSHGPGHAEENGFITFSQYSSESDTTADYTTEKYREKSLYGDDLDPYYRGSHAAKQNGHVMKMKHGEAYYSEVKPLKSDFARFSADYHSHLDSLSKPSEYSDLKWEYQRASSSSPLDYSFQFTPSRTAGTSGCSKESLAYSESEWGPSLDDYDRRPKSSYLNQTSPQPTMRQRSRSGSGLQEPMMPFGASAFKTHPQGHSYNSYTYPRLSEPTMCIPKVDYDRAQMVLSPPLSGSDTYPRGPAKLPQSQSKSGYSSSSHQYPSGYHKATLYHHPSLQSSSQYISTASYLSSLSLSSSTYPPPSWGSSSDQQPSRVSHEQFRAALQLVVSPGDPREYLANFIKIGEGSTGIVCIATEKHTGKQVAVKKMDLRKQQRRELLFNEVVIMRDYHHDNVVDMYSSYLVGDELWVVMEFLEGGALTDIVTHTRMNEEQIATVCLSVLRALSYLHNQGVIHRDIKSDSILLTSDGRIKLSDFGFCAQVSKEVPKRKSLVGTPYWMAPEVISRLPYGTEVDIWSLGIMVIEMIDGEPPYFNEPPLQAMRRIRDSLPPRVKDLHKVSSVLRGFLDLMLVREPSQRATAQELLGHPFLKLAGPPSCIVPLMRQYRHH
protocol: radiometric filter-binding kinase assay
recorded.conditions: compound 1.0 µM; ATP 20 µM
Items are presented alongside their recorded residual activity.
experimental.readout: residual activity (%)

>  <molecule>
O=S(=O)(NCCNC/C=C/c1ccc(Br)cc1)c1cccc2cnccc12

>  <quantitative.readout>
84

$$$$
>  <molecule>
CO[C@H]1CC2CC[C@@H](C)[C@@](O)(O2)C(=O)C(=O)N2CCCC[C@H]2C(=O)OC([C@H](C)C[C@@H]2CC[C@@H](O)[C@H](OC)C2)CC(=O)[C@H](C)/C=C(\C)[C@@H](O)[C@@H](OC)C(=O)[C@H](C)C[C@H](C)/C=C/C=C/C=C/1C (some centres undefined)

>  <quantitative.readout>
89

$$$$
>  <molecule>
CC[C@@H](CO)Nc1nc(NCc2ccccc2)c2ncn(C(C)C)c2n1

>  <quantitative.readout>
74

$$$$
>  <molecule>
COc1ccc2c(c1)=NC1=C(C)NCCC=21

>  <quantitative.readout>
84

$$$$

====

assayed.target: MKNK2 (human) (UniProt Q9HBH9)
Sequence (Q9HBH9 whole entry, looked up): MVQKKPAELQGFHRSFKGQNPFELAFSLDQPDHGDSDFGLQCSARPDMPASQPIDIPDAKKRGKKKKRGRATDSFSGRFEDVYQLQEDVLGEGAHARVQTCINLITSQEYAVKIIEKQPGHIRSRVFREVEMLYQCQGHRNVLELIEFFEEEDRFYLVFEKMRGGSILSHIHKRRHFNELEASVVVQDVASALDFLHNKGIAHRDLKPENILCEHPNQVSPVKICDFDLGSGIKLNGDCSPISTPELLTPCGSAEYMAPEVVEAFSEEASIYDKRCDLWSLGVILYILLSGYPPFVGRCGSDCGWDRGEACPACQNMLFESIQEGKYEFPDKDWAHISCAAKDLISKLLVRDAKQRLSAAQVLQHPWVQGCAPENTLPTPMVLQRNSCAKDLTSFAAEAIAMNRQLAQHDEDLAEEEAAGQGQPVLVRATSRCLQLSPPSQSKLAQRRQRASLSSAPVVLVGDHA
protocol: radiometric filter-binding kinase assay
recorded.conditions: compound 1.0 µM; ATP 50 µM
Items are presented alongside their recorded residual activity.

>  <compound>
COC[C@H]1OC(=O)c2coc3c2[C@@]1(C)C1=C(C3=O)[C@@H]2CCC(=O)[C@@]2(C)C[C@H]1OC(C)=O

>  <readout.units>
%

>  <residual activity>
97

$$$$
>  <compound>
O=C1c2ccccc2-c2n[nH]c3cccc1c23

>  <readout.units>
%

>  <residual activity>
59

$$$$
>  <compound>
O=S(=O)(NCCNC/C=C/c1ccc(Br)cc1)c1cccc2cnccc12

>  <readout.units>
%

>  <residual activity>
97

$$$$
>  <compound>
CO[C@H]1CC2CC[C@@H](C)[C@@](O)(O2)C(=O)C(=O)N2CCCC[C@H]2C(=O)OC([C@H](C)C[C@@H]2CC[C@@H](O)[C@H](OC)C2)CC(=O)[C@H](C)/C=C(\C)[C@@H](O)[C@@H](OC)C(=O)[C@H](C)C[C@H](C)/C=C/C=C/C=C/1C (stereo not given in full)

>  <readout.units>
%

>  <residual activity>
102

$$$$
>  <compound>
COc1ccc2c(c1)=NC1=C(C)NCCC=21

>  <readout.units>
%

>  <residual activity>
92

$$$$
